Data provenance is paper PMC6391970.

biological target: KDM4B (Homo sapiens)
Sequence (O94953 whole entry): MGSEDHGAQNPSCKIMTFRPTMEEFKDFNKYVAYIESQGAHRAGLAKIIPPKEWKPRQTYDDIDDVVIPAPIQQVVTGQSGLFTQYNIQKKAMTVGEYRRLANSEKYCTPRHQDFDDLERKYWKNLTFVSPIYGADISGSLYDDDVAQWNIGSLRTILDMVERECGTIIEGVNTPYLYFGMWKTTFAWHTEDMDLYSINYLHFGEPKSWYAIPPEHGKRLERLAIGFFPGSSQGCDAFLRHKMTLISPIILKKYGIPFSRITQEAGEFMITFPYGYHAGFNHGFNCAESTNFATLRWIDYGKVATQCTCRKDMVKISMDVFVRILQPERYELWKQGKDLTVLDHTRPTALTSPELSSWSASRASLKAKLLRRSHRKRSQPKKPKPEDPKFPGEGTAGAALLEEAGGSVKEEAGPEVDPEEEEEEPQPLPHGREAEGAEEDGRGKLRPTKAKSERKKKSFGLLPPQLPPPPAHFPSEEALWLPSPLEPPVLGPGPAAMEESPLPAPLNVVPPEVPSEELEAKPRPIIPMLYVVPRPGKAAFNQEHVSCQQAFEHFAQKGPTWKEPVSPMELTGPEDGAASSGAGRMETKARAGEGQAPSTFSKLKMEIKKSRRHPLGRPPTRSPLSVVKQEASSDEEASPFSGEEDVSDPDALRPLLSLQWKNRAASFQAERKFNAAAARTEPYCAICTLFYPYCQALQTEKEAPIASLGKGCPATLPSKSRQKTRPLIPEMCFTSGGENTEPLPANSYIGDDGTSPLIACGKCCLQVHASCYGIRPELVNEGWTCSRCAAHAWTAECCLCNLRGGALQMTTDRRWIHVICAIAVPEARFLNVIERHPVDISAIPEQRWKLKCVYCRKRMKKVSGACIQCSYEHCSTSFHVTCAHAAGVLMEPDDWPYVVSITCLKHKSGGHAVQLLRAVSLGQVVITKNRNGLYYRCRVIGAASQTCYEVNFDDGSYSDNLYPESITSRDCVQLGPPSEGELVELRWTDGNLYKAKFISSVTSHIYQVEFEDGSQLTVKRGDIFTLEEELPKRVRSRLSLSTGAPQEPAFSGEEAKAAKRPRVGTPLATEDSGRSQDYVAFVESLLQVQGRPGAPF
Measured endpoint: IC50 (nM)

# Given smiles, Result number
rows = [
    ("C=CC(=O)NCCOc1ccc(-c2[nH]c3c(C#N)cnn3c(=O)c2C(C)C)cc1", 6300),
]

P = CN(CCc1cnn(-c2nccc3c(=O)[nH]cnc23)c1)Cc1cccc(NC(=O)CCl)c1
Q = CN(C)C/C=C/C(=O)Nc1cccc(CN(C)CCc2cnn(-c3nccc4c(=O)[nH]cnc34)c2)c1
QUERY: Which entry shows the lesser value of IC50 here, P or Q ? Selection: enter the item's label.
RESULT: P

====

Target: KDM4C (Homo sapiens, UniProt Q9H3R0)
Sequence (Q9H3R0 1-1056): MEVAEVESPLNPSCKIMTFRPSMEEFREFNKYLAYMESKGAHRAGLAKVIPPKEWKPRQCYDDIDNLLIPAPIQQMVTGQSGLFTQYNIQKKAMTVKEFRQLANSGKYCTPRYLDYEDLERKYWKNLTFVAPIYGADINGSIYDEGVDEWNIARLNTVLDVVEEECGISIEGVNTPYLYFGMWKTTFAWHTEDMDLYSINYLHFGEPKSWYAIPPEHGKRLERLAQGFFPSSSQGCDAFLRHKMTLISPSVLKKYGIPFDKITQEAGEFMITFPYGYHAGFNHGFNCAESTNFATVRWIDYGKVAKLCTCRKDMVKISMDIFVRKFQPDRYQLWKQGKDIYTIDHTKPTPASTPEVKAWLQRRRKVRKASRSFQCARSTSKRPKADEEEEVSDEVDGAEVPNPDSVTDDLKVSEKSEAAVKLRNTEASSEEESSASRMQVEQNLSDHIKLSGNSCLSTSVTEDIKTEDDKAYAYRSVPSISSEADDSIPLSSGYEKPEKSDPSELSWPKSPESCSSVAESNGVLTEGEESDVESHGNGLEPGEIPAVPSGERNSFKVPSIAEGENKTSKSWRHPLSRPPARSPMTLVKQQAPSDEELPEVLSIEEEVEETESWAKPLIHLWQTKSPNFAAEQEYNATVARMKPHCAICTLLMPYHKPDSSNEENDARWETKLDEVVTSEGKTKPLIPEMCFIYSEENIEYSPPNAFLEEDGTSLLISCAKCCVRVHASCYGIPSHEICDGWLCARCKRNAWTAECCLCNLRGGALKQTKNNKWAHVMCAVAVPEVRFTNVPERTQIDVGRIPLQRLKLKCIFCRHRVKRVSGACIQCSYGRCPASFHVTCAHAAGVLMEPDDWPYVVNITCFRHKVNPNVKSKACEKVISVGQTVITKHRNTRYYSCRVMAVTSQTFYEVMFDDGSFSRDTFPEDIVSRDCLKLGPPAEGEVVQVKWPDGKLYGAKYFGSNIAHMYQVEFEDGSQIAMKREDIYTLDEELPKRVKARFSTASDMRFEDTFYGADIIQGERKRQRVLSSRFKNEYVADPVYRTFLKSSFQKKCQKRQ
Assay: KDM AlphaScreen selectivity panel, KDM4C
Type: biochemical
Conditions: KDM4C IC50/KDM5B IC50
Measured endpoint: SI over KDM5B, 4C

Known results for compounds:
# Given smiles, SI over KDM5B, 4C
measured = [
    ("CN(CCc1cnn(-c2nccc3c(=O)[nH]cnc23)c1)Cc1cccc(NC(=O)CCl)c1", 31),
    ("CC(C)c1c(-c2cnn(CCNC(=O)CCl)c2)[nH]c2c(C#N)cnn2c1=O", 253),
    ("C=CC(=O)N1CCC(n2cc(-c3[nH]c4c(C#N)cnn4c(=O)c3C(C)C)cn2)CC1", 234),
]

P = CC(C)c1c(-c2cnn(C3CCN(C(=O)CCl)CC3)c2)[nH]c2c(C#N)cnn2c1=O
Q = C=CC(=O)NCCOc1ccc(-c2[nH]c3c(C#N)cnn3c(=O)c2C(C)C)cc1
QUERY: Higher SI over KDM5B, 4C: P or Q ? Selection: enter the item's label.
RESULT: P
